Data origin, for the record: ChEMBL document CHEMBL1165853

Assay: Cytotoxicity against human Raji cells assessed as cell viability at 1000 molar ratio by trypan blue staining method
Type: cell-based
Settings: read-out: Activity
viability at 1000 molar ratio values, listed per item

- compound: "COc1cc(/C=C/C(=O)CC(O)/C=C/c2ccc(OC(=O)CC(=O)O[C@@H]3CC[C@]4(C)[C@H]5CC[C@H]6[C@@](C)(CC[C@H]7C(C)(C)[C@@H](OC)CC[C@@]76C)CC5=CC[C@H]4C3(C)C)c(OC)c2)ccc1OC(=O)CC(=O)O[C@@H]1CC[C@]2(C)[C@H]3CC[C@H]4[C@@](C)(CC[C@H]5C(C)(C)[C@@H](OC)CC[C@@]54C)CC3=CC[C@H]2C1(C)C (some centres undefined)"
  viability at 1000 molar ratio: "60%"
- compound: "CO[C@H]1CC[C@@]2(C)[C@@H](CC[C@@]3(C)CC4=CC[C@H]5C(C)(C)[C@H](OC(=O)Nc6ccccc6Cl)CC[C@]5(C)[C@H]4CC[C@@H]32)C1(C)C"
  viability at 1000 molar ratio: "50%"
- compound: "CO[C@H]1CC[C@@]2(C)[C@@H](CC[C@@]3(C)CC4=CC[C@H]5C(C)(C)[C@H](OC(=O)NS(=O)(=O)c6ccc(C)cc6)CC[C@]5(C)[C@H]4CC[C@@H]32)C1(C)C"
  viability at 1000 molar ratio: "60%"
- compound: "CO[C@H]1CC[C@@]2(C)[C@@H](CC[C@@]3(C)CC4=CC[C@H]5C(C)(C)[C@H](OC(=O)CCl)CC[C@]5(C)[C@H]4CC[C@@H]32)C1(C)C"
  viability at 1000 molar ratio: "60%"
